test summary: survival after telomere uncapping, modulators, primary screen, cell-based (AID 1259312);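 also: virus expresses mutant telomerase RNA that uncaps telomeres and kills cells; compound added 2 days after infection so exposure lasts 3 days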
condition: HCT116 + Ad-hTR-mut, MTT, 5 d; at 10 µM, hits give high values
The campaign covered roughly 4,500 compounds. About 200 (4.4%) were called active. For the sample, actives were picked, then their nearest neighbours and some compounds at random.
Parameter threshold = 1. Response is T when fold change meets or exceeds it, else F.

compound: S=c1[nH]nc(Cc2n[nH]c(=S)n2Cc2ccccc2)n1Cc1ccccc1
assigned label: T
//
compound: Cc1ccc(-c2noc(COc3ccc4c(c3)OCO4)n2)cc1
assigned label: T
//
compound: Nc1nc(-c2ccc(Cl)c(Cl)c2)cs1
assigned label: T
//
compound: CC(=O)OC[C@H]1O[C@@H](n2ncc(=O)[nH]c2=O)[C@H](OC(C)=O)[C@@H]1OC(C)=O
assigned label: F
//
compound: CC(Nc1cc(Cl)ccc1[N+](=O)[O-])C12CC3CC(CC(C3)C1)C2 (stereo not given)
assigned label: F
//
compound: O=[N+]([O-])c1ccc(N2CCN(S(=O)(=O)c3cc(Cl)ccc3Cl)CC2)cc1
assigned label: T
//
compound: O=[N+]([O-])c1ccc(N2CCN(S(=O)(=O)c3ccc(Br)cc3)CC2)cc1
assigned label: T
//
compound: N#CC1=C(N)C(C#N)(C#N)C(c2ccc(Cl)cc2Cl)C2CCCC=C12 (stereo not given)
assigned label: F
//
compound: O=[N+]([O-])c1ccc(N2CCOCC2)c(S(=O)(=O)N2CCOCC2)c1
assigned label: F
//
compound: C=CCOC1OC(COC(C)=O)C(OC(C)=O)C(OC(C)=O)C1OC(C)=O (stereo not given)
assigned label: T
//
compound: CC(=O)OCC1OC(n2ccc(=O)[nH]c2=O)C(OC(C)=O)C1OC(C)=O (stereo not given)
assigned label: F
//
compound: O=[N+]([O-])c1ccc(S(=O)(=O)N2CCOCC2)cc1
assigned label: T
//
compound: CC1(C)C=Cc2c(c3ccccc3[nH]c2=O)O1
assigned label: F
//
compound: CCOC(=O)c1c(N)sc(C(=O)N2CCCCC2)c1C
assigned label: F
//
compound: Cn1c(=S)n(CCSc2nc3ccccc3n2C2CCCCC2)c2ccccc21
assigned label: F
//
compound: Cc1c(C(C)C)c(=O)n(-c2ccc(S(=O)(=O)NC3CC3)cc2)n1C
assigned label: F
//
compound: O=C1C2C3CC(C(Br)C3Br)C2C(=O)N1c1ccc(Br)cc1 (stereo not given)
assigned label: T
//
compound: c1ccc(-c2nc(SCc3ccon3)[nH]c2-c2ccccc2)cc1
assigned label: F
//
compound: OC[C@H]1O[C@@H](O[C@@H]2[C@@H](CO)O[C@](O)(CO)[C@H]2O)[C@H](O)[C@@H](O)[C@H]1O
assigned label: T
//
compound: CN1CC=C2[C@H](C1)[C@@H](c1ccccc1F)C(C#N)=C(N)C2(C#N)C#N
assigned label: T
//
compound: N=C1S/C(=C/c2cn[nH]c2-c2ccc(F)cc2)C(=O)N1c1nonc1N
assigned label: F
//
compound: S=c1[nH]nc(CCc2ccccc2)n1Cc1ccccc1
assigned label: T
//
compound: COC(=O)C1=C(N)C(C(=O)OC)=c2s/c(=C/c3cccnc3)c(=O)n2C1c1cccnc1 (stereo not given)
assigned label: T
//
compound: O=C(c1n[nH]c(=O)c2ccccc12)N1CCN(c2ccccn2)CC1
assigned label: F
//
compound: N#CC(C#N)=Cc1ccc(-c2cccc(C(F)(F)F)c2)o1
assigned label: T
